Experimental System: Bile acid receptor (Homo sapiens) (UniProt Q96RI1)
Sequence (Q96RI1 whole entry, looked up): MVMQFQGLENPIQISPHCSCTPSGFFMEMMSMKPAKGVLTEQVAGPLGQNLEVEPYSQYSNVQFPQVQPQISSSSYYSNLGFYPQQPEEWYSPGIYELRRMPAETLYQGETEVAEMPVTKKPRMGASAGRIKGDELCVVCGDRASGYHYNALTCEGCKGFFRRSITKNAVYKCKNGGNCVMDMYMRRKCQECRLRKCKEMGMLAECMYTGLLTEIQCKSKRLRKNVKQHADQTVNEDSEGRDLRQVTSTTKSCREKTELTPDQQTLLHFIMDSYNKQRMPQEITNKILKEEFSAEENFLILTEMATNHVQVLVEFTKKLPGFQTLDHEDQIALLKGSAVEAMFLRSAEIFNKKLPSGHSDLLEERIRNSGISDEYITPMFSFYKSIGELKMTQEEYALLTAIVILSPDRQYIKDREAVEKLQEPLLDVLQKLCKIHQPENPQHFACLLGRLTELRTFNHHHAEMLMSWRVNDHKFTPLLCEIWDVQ
Experiment Summary: qHTS assay to identify small molecule antagonists of the farnesoid-X-receptor (FXR) signaling pathway (AID 743217)
Condition Summary: HEK293T FXR-UAS-bla, beta-lactamase ratio, CDCA-stimulated, 16 h; series mostly up to 62.6 µM
Records with an inconclusive call do not appear. Active and inactive are the calls of the source. Calls come from the whole dose curve; as a rule, active = well fitted inhibition curve with a large enough effect in the signal ratio in the repeat runs (not every such curve was filed as active); inconclusive = weak or mixed curves, or effect the other way; inactive = no such curve, though single readings can be large or run the other way; the % refers to the signal ratio.
Entry note: the call must match one of 1 for active, -1 for inactive

# lookup: test call for "Cc1ccc(C=O)cc1C"
-1

# lookup: test call for "BrCCCCCBr"
-1

# lookup: test call for "CC(C)OC(=O)CCCCC(=O)OC(C)C"
1

# lookup: test call for "CCCOC(OCCC)OCCC"
-1

# lookup: test call for "N[C@@H](CCC(=O)Nc1ccc([N+](=O)[O-])cc1)C(=O)O"
-1

More entries:
# lookup: test call for "O=S(=O)(O)CCN1CCN(CCO)CC1"
-1

# lookup: test call for "COC(=O)c1ccccc1C(=O)c1ccc(OCCN2CCCCC2)cc1"
-1

# lookup: test call for OCCCCC(O)CO (stereo unspecified)
-1

# lookup: test call for O=C(NCC(O)CO)c1c(I)c(C(=O)NCC(O)CO)c(I)c(N(CCO)C(=O)CO)c1I (stereo unspecified)
-1

# lookup: test call for "Cc1ccsc1/C=C/C1=NCCCN1C"
-1

# lookup: test call for "COc1ccc(Br)c(C)c1"
-1

Entry source: PubChem BioAssay (Tox21)
